Below, each entry is listed with its recorded inhibition at 1 µM.
# Target under test: HER-2 (Homo sapiens)
# Construct: endogenous in cells; host or cells: Calu-3 (ATCC HTB-55) human non-small-cell lung cancer cells
# Sequence (P04626 23-1255): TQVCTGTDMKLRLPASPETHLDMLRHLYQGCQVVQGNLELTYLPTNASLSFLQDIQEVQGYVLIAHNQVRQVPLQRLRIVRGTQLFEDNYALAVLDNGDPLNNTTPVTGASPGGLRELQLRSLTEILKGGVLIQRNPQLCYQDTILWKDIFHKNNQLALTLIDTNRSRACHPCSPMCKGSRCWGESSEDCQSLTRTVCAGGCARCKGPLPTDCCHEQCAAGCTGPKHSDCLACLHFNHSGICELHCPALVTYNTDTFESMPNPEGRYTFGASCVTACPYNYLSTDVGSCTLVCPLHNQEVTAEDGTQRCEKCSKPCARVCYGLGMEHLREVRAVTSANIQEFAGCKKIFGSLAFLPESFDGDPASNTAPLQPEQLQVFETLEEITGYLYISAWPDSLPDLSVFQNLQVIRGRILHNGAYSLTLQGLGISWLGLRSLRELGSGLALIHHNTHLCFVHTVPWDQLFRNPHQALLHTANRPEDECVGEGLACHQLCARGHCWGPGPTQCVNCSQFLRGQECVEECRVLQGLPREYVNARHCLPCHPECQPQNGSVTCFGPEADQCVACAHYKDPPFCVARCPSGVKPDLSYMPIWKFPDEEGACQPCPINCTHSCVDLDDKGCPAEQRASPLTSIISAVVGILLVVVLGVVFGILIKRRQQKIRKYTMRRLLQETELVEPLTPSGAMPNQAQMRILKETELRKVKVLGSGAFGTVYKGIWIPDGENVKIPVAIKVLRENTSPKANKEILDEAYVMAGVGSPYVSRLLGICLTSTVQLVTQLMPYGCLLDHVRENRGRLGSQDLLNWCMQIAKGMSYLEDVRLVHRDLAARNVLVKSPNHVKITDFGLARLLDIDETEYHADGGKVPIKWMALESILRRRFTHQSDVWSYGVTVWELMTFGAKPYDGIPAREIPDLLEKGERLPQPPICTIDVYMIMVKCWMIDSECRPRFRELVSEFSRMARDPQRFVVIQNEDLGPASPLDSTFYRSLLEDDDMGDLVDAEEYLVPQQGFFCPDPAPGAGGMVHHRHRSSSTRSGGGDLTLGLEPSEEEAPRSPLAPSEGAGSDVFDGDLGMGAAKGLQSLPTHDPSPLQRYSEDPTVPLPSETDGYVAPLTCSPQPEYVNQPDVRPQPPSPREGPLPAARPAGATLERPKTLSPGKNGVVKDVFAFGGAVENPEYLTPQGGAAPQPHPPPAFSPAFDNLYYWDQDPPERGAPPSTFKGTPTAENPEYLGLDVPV
# Measurement protocol: Inhibition of HER-2 phosphorylation in Calu-3 tumor cell line
# Type: cell-based
# Conditions used: compound concentration 1 μM; Calu-3 cells, 16 h incubation; pY 1248 in HER-2; relative to DMSO control; read-out: Percent inhibition of HER-2-phosphorylation

Worked set:
Record lookup: for HER-2 (Homo sapiens), what inhibition at 1 µM belongs to [O-][S+](CCn1ccnn1)Cc1ccc(OCc2coc(/C=C/c3ccc(C(F)(F)F)cc3F)n2)cc1 (stereo not shown) [Example 11] ?
> 80%

Record lookup: for HER-2 (Homo sapiens), what inhibition at 1 µM belongs to FC(F)(F)Oc1ccc(C=Cc2nc(COc3ccc(CSCCn4ccnn4)cc3)co2)cc1 [Example 1] ?
65 to 80%

Record lookup: for HER-2 (Homo sapiens), what inhibition at 1 µM belongs to Fc1cc(Cl)ccc1/C=C/c1nc(COc2ccc(CSCCn3ccnn3)cc2)co1 [Example 9] ?
65 to 80%

Record lookup: for HER-2 (Homo sapiens), what inhibition at 1 µM belongs to FC(F)(F)c1ccc(C=Cc2nc(COc3ccc(CSCCn4ccnn4)cc3)co2)cc1 [Example 6] ?
55 to 65%

Record lookup: for HER-2 (Homo sapiens), what inhibition at 1 µM belongs to [O-][S+](CCn1ccnn1)Cc1ccc(OCc2coc(/C=C/c3ccc(OC(F)(F)F)cc3)n2)cc1 (stereo not shown) [Example 3] ?
> 80%

Next:
Record lookup: for HER-2 (Homo sapiens), what inhibition at 1 µM belongs to O=S(=O)(CCn1ccnn1)Cc1ccc(OCc2coc(/C=C/c3ccc(C(F)(F)F)cc3F)n2)cc1 [Example 10] ?
55 to 65%

Record lookup: for HER-2 (Homo sapiens), what inhibition at 1 µM belongs to Fc1cc(C(F)(F)F)ccc1/C=C/c1nc(COc2ccc(CSCCn3ccnn3)cc2)co1 [Example 7] ?
> 80%
